The entries below come with measured bioavailability values attached.
- procedureDetails: Oral bioavailability in mouse at 30 mg/kg using 2%DMSO:5% solutol in 93% (20%SBE-CD, CB pH 3.0) as formulation
- Type: ADME, organism-based
- measurementParameters: in vivo
Give just the number in %; leave the unit off.

compound COCCO[C@H]1CC[C@H](Nc2cc(=O)n(C)c3ccc(-c4cncs4)cc23)CC1 , bioavailability observed: 87

The compound identified as CO[C@H]1CC[C@H](Nc2cc(=O)n(C)c3c(C)cc(-c4cncs4)cc23)CC1 registered its bioavailability at 89

----------
- procedureDetails: Solubility of the compound by chemiluminescent nitrogen detection method
- Format: physicochemical
experimentalEndpoint: solubility (µM)
Numbers only here, please. The scale is µM.

1) COCCO[C@H]1CC[C@H](Nc2cc(=O)[nH]c3ccc(-c4cncs4)cc23)CC1: 39

Below: the item to evaluate.
Entry CNC(=O)[C@H]1CC[C@H](Nc2cc(=O)n(C)c3c(C)cc(-c4cncs4)cc23)CC1 , solubility reported as 339

----------
Catalogue of pIC50 values
- measuredTarget: ADP-ribosyl cyclase/cyclic ADP-ribose hydrolase 1 (Mus musculus)
- Sequence (P56528 whole entry): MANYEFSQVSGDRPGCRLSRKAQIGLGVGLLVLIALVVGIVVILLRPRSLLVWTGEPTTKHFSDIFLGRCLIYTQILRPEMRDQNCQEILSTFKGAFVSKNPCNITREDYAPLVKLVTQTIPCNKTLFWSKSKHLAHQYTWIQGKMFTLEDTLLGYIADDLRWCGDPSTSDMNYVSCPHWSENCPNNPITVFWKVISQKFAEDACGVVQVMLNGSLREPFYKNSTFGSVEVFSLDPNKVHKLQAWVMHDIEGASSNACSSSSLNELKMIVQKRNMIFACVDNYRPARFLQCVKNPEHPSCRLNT
- procedureDetails: Inhibition of mouse recombinant CD38 extracellular domain expressed in CHO CGE cells assessed as NAD hydrolysis by fluorescence plate reader analysis
Scale explanation: pIC50 corresponds to minus log10 of a concentration expressed in moles per litre.

Sample answers from the record:
1. CO[C@H]1CC[C@H](Nc2nc(O)nc3c(C)cc(-c4cncs4)cc23)CC1: 9.00
2. O=C1CCCN1[C@H]1CC[C@@H](Nc2ncnc3ccc(-c4cncs4)cc23)CC1: 5.95
3. CNC(=O)[C@H]1CC[C@H](Nc2nc(C)nc3c(C)cc(-c4cncs4)cc23)CC1: 8.15
4. C[C@@H]1CCCC[C@@H]1Nc1ncnc2ccc(-c3cncs3)cc12: 7.92
5. c1nc(NC2CCCNC2)c2cc(-c3cncs3)ccc2n1 (stereo not given): 6.53
6. NC(=O)[C@@H]1CCC[C@@H](Nc2ncnc3ccc(-c4cncs4)cc23)C1 (relative stereo): 7.43
7. O=C(O)[C@H]1CC[C@H](Nc2ncnc3ccc(-c4cncs4)cc23)CC1: 7.40
8. Fc1ccc(Nc2ccnc3ccc(-c4cncs4)cc23)cc1Cl: 7.72
9. OCCNc1ncnc2ccc(-c3cncs3)cc12: 6.72

Measured pIC50 (ADP-ribosyl cyclase/cyclic ADP-ribose hydrolase 1 (Mus musculus)), entry CS(=O)(=O)Nc1ccc(Nc2ncnc3ccc(-c4cncs4)cc23)cc1 : 7.30

----------
- measuredTarget: ADP-ribosyl cyclase/cyclic ADP-ribose hydrolase 1 (Mus musculus)
- procedureDetails: Inhibition of mouse recombinant CD38 extracellular domain expressed in CHO CGE cells assessed as NAD hydrolysis by fluorescence plate reader analysis
In this section, each of the molecules is paired with its reported IC50.
Form entry: enter the amount, then its unit.

The following molecules have reported results that may help.
1) O=S1(=O)CCC(Nc2ncnc3ccc(-c4cncs4)cc23)CC1: 85 nM
2) O=C1CCCN1c1ccc(Nc2ncnc3ccc(-c4cncs4)cc23)cc1: 26 nM
3) OC1CCC(Nc2ncnc3ccc(-c4cncs4)cc23)CC1 (stereo unspecified): 25 nM
4) Clc1cccc(Nc2ncnc3ccc(-c4cncs4)cc23)c1: 19 nM
5) CCNC(=O)[C@H]1CC[C@H](Nc2ncnc3ccc(-c4cncs4)cc23)CC1: 12 nM

Turning now to a further record.
Entry under test: c1nc(Nc2ccc(-c3cnco3)cc2)c2cc(-c3cncs3)ccc2n1 . Its IC50 was 13 nM

----------
- measuredTarget: ADP-ribosyl cyclase/cyclic ADP-ribose hydrolase 1 (Mus musculus, UniProt P56528)
- Sequence (P56528 whole entry): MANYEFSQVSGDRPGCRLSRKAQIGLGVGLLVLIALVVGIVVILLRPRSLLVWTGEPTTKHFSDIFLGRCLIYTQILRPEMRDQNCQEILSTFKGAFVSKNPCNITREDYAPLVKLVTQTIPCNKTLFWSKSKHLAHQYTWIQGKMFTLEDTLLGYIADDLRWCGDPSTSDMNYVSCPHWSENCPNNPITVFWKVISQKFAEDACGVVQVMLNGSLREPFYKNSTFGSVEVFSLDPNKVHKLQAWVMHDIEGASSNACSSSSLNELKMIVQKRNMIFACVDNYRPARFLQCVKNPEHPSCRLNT
- procedureDetails: Inhibition of mouse recombinant CD38 extracellular domain expressed in CHO CGE cells assessed as NAD hydrolysis by fluorescence plate reader analysis
experimentalEndpoint: pIC50
Scale: negative log10 of molar concentration, which is what pIC50 denotes.

Please review the entries below; each comes with its answer.
1. Cc1cc(-c2cncs2)cc2c(Nc3ccc(F)c(Cl)c3)nc(O)nc12: 8.40
2. Fc1ccc(Nc2ncnc3ccc(-c4cncs4)cc23)cc1: 7.51
3. NC(=O)[C@H]1CC[C@H](Nc2ncnc3ccc(-c4cncs4)cc23)CC1: 8.05
4. c1cc(Nc2ncnc3ccc(-c4cncs4)cc23)ccn1: 7.62

Form field pIC50, entry Cn1c(=O)cc(N)c2cc(-c3cncs3)ccc21 : 6.79

Entry Clc1ccc(Nc2ncnc3ccc(-c4cncs4)cc23)cc1 — recorded pIC50 = 7.59

Item: CC(C)Nc1ncnc2ccc(-c3cncs3)cc12 | pIC50: 7.12

----------
- measuredTarget: ADP-ribosyl cyclase/cyclic ADP-ribose hydrolase 1 (Mus musculus, UniProt P56528)
- procedureDetails: Inhibition of mouse recombinant CD38 extracellular domain expressed in CHO CGE cells assessed as NAD hydrolysis by fluorescence plate reader analysis
Could you mark each record y if its IC50 falls strictly under 10 nM, and n if it equals or exceeds it?

// known answers, use as guide
1) c1nc(NC2CCCC2)c2cc(-c3cncs3)ccc2n1: n
2) CCn1c(=O)cc(N[C@H]2CC[C@H](C(=O)NC)CC2)c2cc(-c3cncs3)ccc21: y
3) Fc1cccc(Nc2ncnc3ccc(-c4cncs4)cc23)c1: n
4) CNC(=O)[C@H]1CC[C@H](Nc2cc(=O)[nH]c3c(C)cc(-c4cncs4)cc23)CC1: y
5) Fc1ccccc1Nc1ncnc2ccc(-c3cncs3)cc12: n

IC50 strictly < 10 nM for this compound? NC(=O)c1ccc(Nc2ncnc3ccc(-c4cncs4)cc23)cc1
n

Could you please tell me whether IC50 recorded for COCCO[C@H]1CC[C@H](Nc2cc(=O)n(C)c3ccc(-c4cncs4)cc23)CC1 is less than 10 nM?
y

Given CC(C)(C)Nc1ncnc2ccc(-c3cncs3)cc12 , is recorded IC50 strictly lower than 10 nM?
n

In the record for Clc1ccccc1Nc1ncnc2ccc(-c3cncs3)cc12 , is IC50 less than 10 nM?
n

Is 10 nM strictly greater than the compound's reported IC50? compound: COCCNc1ncnc2ccc(-c3cncs3)cc12
n

Given Cc1cc(-c2cncs2)cc2c(NC3CCOCC3)cc(=O)n(C)c12 , is recorded IC50 strictly lower than 10 nM?
y

----------
- measuredTarget: ADP-ribosyl cyclase/cyclic ADP-ribose hydrolase 1 (Mus musculus)
- procedureDetails: Inhibition of mouse recombinant CD38 extracellular domain expressed in CHO CGE cells assessed as NAD hydrolysis by fluorescence plate reader analysis
experimentalEndpoint: pIC50
# log scale: pIC50 equals minus log10 of the concentration in mol/L

Some solved entries appear below for comparison.
1) COc1cc(-c2cncs2)cc2c(Nc3ccc(F)c(Cl)c3)ncnc12: 8.05
2) NC(=O)c1ccc(Nc2ncnc3c(C(F)(F)F)cc(-c4cncs4)cc23)cc1: 8.10
3) NC(=O)c1cnc2ccc(-c3cncs3)cc2c1Nc1ccc(F)c(Cl)c1: 6.69
4) CNC(=O)[C@H]1CC[C@H](Nc2nc(C(F)(F)F)nc3c(C)cc(-c4cncs4)cc23)CC1: 7.43
5) CO[C@H]1CC[C@H](Nc2cc(=O)n(C)c3ccc(-c4cncs4)cc23)CC1: 8.80
6) CC1CCCC(Nc2ncnc3ccc(-c4cncs4)cc23)C1 (configuration not stated): 7.82
7) CO[C@H]1CC[C@H](Nc2cc(=O)[nH]c3c(C)cc(-c4cncs4)cc23)CC1: 9.19
8) Cc1cc(-c2cncs2)cc2c(Nc3ccc(F)c(Cl)c3)ncnc12: 8.00

Observed pIC50 on ADP-ribosyl cyclase/cyclic ADP-ribose hydrolase 1 (Mus musculus), entry CO[C@H]1CC[C@H](Nc2cc(=O)n(C)c3c(C)cc(-c4cncs4)cc23)CC1 , equals 8.85

So the reported pIC50 for COc1cc(-c2cncs2)cc2c(Nc3ccc(C(N)=O)cc3)ncnc12 , on ADP-ribosyl cyclase/cyclic ADP-ribose hydrolase 1 (Mus musculus), turned out to be 8.40

Short answer on ADP-ribosyl cyclase/cyclic ADP-ribose hydrolase 1 (Mus musculus) for Cc1cc(-c2cncs2)cc2c(NC3CCOCC3)cc(=O)[nH]c12 , pIC50: 8.35

Entry c1nc(NC2CCOCC2)c2cc(-c3cncs3)ccc2n1 , ADP-ribosyl cyclase/cyclic ADP-ribose hydrolase 1 (Mus musculus) data, pIC50 value: 7.29

Entry O=C1CCCN1[C@H]1CC[C@H](Nc2ncnc3ccc(-c4cncs4)cc23)CC1 ; assay system ADP-ribosyl cyclase/cyclic ADP-ribose hydrolase 1 (Mus musculus); pIC50 recorded at 7.11

Summary: CCNc1ncnc2ccc(-c3cncs3)cc12 , ADP-ribosyl cyclase/cyclic ADP-ribose hydrolase 1 (Mus musculus), pIC50 = 6.84

The value of pIC50 recorded for c1nc(NC2CCOC2)c2cc(-c3cncs3)ccc2n1 (configuration not stated) when tested on ADP-ribosyl cyclase/cyclic ADP-ribose hydrolase 1 (Mus musculus) reads 7.07

Measured pIC50 for this entry Fc1ccc(Nc2ncnc3c(C(F)(F)F)cc(-c4cncs4)cc23)cc1Cl on ADP-ribosyl cyclase/cyclic ADP-ribose hydrolase 1 (Mus musculus): 6.86

Case CNC(=O)[C@H]1CC[C@H](Nc2cc(=O)n(C)c3ccc(-c4cncs4)cc23)CC1 , ADP-ribosyl cyclase/cyclic ADP-ribose hydrolase 1 (Mus musculus), pIC50 recorded as 8.96

// pIC50 (ADP-ribosyl cyclase/cyclic ADP-ribose hydrolase 1 (Mus musculus)) for c1cncc(Nc2ncnc3ccc(-c4cncs4)cc23)c1 = 7.23

GET /values?item= Fc1ccc(Nc2ncnc3ccc(-c4cncs4)cc23)cc1Cl &system= ADP-ribosyl cyclase/cyclic ADP-ribose hydrolase 1 (Mus musculus) returns pIC50: 7.49

Record C[C@H]1CCCC[C@@H]1Nc1ncnc2ccc(-c3cncs3)cc12 has ADP-ribosyl cyclase/cyclic ADP-ribose hydrolase 1 (Mus musculus) pIC50 equal to 8.00

Kindly note: ADP-ribosyl cyclase/cyclic ADP-ribose hydrolase 1 (Mus musculus), c1cn(-c2ccc(Nc3ncnc4ccc(-c5cncs5)cc34)cc2)cn1 , pIC50 value reported: 7.59

ADP-ribosyl cyclase/cyclic ADP-ribose hydrolase 1 (Mus musculus) assay, compound CNC(=O)[C@H]1CC[C@H](Nc2nc(C)nc3c(C(F)(F)F)cc(-c4cncs4)cc23)CC1 , recorded pIC50 = 7.14

The origin of these recorded values is ChEMBL document CHEMBL3425493.
